- target.of.assay: Aβ 1-42 fibrils (Homo sapiens, UniProt P05067)
- Construct: purchased Bachem Inc
- Sequence (P05067 672-713): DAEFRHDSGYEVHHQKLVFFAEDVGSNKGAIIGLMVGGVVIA
- method.notes: Thioflavin T fluorometry, disruption of pre-formed Aβ 1-42 fibrils (Example 11)
- Format: biochemical
- run.parameters: Aβ:test compound wt/wt ratio 1:0.01; 30 μg pre-fibrillized Aβ 1-42, 37° C., 3 days
Could you label it yes if measured % Inhibition Aβ (result ± S.D.), Thioflavin T fluorometry is 40% or higher, and no otherwise?

| compound | label |
| --- | --- |
| O=C(Nc1cc(O)c(O)cc1F)c1ccc(O)c(O)c1 [DC-0051-F5] | yes |
| O=C(Nc1ccc(O)c(O)c1)c1cc(O)c(O)c(F)c1 [DC-0051-F3] | no |
| O=C(Nc1cc(O)c(O)c(F)c1)c1ccc(O)c(O)c1 [DC-0051-F4] | no |
| O=C(Nc1ccc(O)c(O)c1)c1ccc(O)c(O)c1F [DC-0051-F1] | no |
| O=C(Nc1ccc(O)c(O)c1)c1cc(O)c(O)cc1F [DC-0051-F2] | yes |
| O=C(O)CN(CCN(CC(=O)O)CC(=O)O)CC(=O)O [EDTA] | no |
| O=C(Nc1ccc(O)c(O)c1F)c1ccc(O)c(O)c1 [DC-0051-F6] | no |

###

Recorded % Inhibition α-synuclein (result ± S.D.), Congo red binding for the following compounds
- target.of.assay: α-synuclein fibrils (Homo sapiens)
- Construct: purchased rPeptide
- method.notes: Congo red binding assay, α-synuclein fibrils (Example 12)
- Format: biochemical
- run.parameters: α-synuclein:test compound wt/wt ratio 1:1; 3-day incubation
experimental.endpoint: % Inhibition α-synuclein (result ± S.D.), Congo red binding

| molecular.string | result.value |
| --- | --- |
| O=C(Nc1cc(O)c(O)cc1F)c1ccc(O)c(O)c1 | 69.4 ± 0.13% |
| O=C(Nc1ccc(O)c(O)c1F)c1ccc(O)c(O)c1 | 59.8 ± 3.62% |
| O=C(Nc1cc(O)c(O)c(F)c1)c1ccc(O)c(O)c1 | 64.8 ± 5.08% |
| O=C(Nc1ccc(O)c(O)c1)c1cc(O)c(O)cc1F | 67.8±3.52% |
| O=C(O)CN(CCN(CC(=O)O)CC(=O)O)CC(=O)O | 0.0 ± 5.50% |
| O=C(Nc1ccc(O)c(O)c1)c1ccc(O)c(O)c1F | 69.8±2.67% |
| O=C(Nc1ccc(O)c(O)c1)c1cc(O)c(O)c(F)c1 | 55.9 ± 2.65% |

###

- target.of.assay: Aβ 1-42 fibrils (Homo sapiens, UniProt P05067)
- Construct: purchased Bachem Inc
- method.notes: Congo red binding assay, Aβ 1-42 fibrils (Example 11)
- Type: biochemical
- run.parameters: Aβ:test compound wt/wt ratio 1:0.001; 3-day incubation
Could you label it YES if measured % Inhibition Aβ (result ± S.D.), Congo red binding is 1% or higher, and NO otherwise?

| molecular.string | label |
| --- | --- |
| O=C(Nc1ccc(O)c(O)c1)c1cc(O)c(O)cc1F | YES |
| O=C(Nc1ccc(O)c(O)c1)c1ccc(O)c(O)c1F | YES |
| O=C(Nc1ccc(O)c(O)c1F)c1ccc(O)c(O)c1 | YES |
| O=C(Nc1cc(O)c(O)cc1F)c1ccc(O)c(O)c1 | NO |
| O=C(O)CN(CCN(CC(=O)O)CC(=O)O)CC(=O)O | YES |
| O=C(Nc1cc(O)c(O)c(F)c1)c1ccc(O)c(O)c1 | YES |
| O=C(Nc1ccc(O)c(O)c1)c1cc(O)c(O)c(F)c1 | NO |

###

- target.of.assay: Aβ 1-42 fibrils (Homo sapiens, UniProt P05067)
- Construct: purchased Bachem Inc
- method.notes: Congo red binding assay, Aβ 1-42 fibrils (Example 11)
- Format: biochemical
- run.parameters: Aβ:test compound wt/wt ratio 1:0.01; 3-day incubation
Hi! Just check whether % Inhibition Aβ (result ± S.D.), Congo red binding is below 7%. Below gives TRUE, equal or above gives FALSE.

| molecular.string | label |
| --- | --- |
| O=C(Nc1ccc(O)c(O)c1)c1ccc(O)c(O)c1F | TRUE |
| O=C(Nc1ccc(O)c(O)c1)c1cc(O)c(O)cc1F | TRUE |
| O=C(Nc1ccc(O)c(O)c1)c1cc(O)c(O)c(F)c1 | TRUE |
| O=C(Nc1cc(O)c(O)c(F)c1)c1ccc(O)c(O)c1 | FALSE |
| O=C(O)CN(CCN(CC(=O)O)CC(=O)O)CC(=O)O | FALSE |
| O=C(Nc1cc(O)c(O)cc1F)c1ccc(O)c(O)c1 | FALSE |

###

- target.of.assay: Aβ 1-42 fibrils (Homo sapiens)
- Construct: purchased Bachem Inc
- method.notes: Thioflavin T fluorometry, disruption of pre-formed Aβ 1-42 fibrils (Example 11)
- Type: biochemical
- run.parameters: Aβ:test compound wt/wt ratio 1:0.1; 30 μg pre-fibrillized Aβ 1-42, 37° C., 3 days
- From the text: In one study, Thioflavin T fluorometry was used to determine the effects of the compounds, and of EDTA (as a negative control). In this assay Thioflavin T binds specifically to fibrillar amyloid, and this binding produces a fluorescence enhancement at 485 nm that is directly proportional to the amount of amyloid fibrils formed. […]
Recorded % Inhibition Aβ (result ± S.D.), Thioflavin T fluorometry for the following compounds
experimental.endpoint: % Inhibition Aβ (result ± S.D.), Thioflavin T fluorometry (%)

| molecular.string | target.of.assay | unit.spec | result.value |
| --- | --- | --- | --- |
| O=C(Nc1ccc(O)c(O)c1)c1cc(O)c(O)c(F)c1 | Aβ 1-42 fibrils (Homo sapiens) | % | 92.3 |
| O=C(O)CN(CCN(CC(=O)O)CC(=O)O)CC(=O)O | Aβ 1-42 fibrils (Homo sapiens) | % | 0.0 |
| O=C(Nc1cc(O)c(O)c(F)c1)c1ccc(O)c(O)c1 | Aβ 1-42 fibrils (Homo sapiens) | % | 79.8 |
| O=C(Nc1ccc(O)c(O)c1F)c1ccc(O)c(O)c1 | Aβ 1-42 fibrils (Homo sapiens) | % | 88.0 |
| O=C(Nc1ccc(O)c(O)c1)c1cc(O)c(O)cc1F | Aβ 1-42 fibrils (Homo sapiens) | % | 95.9 |
| O=C(Nc1cc(O)c(O)cc1F)c1ccc(O)c(O)c1 | Aβ 1-42 fibrils (Homo sapiens) | % | 91.8 |
| O=C(Nc1ccc(O)c(O)c1)c1ccc(O)c(O)c1F | Aβ 1-42 fibrils (Homo sapiens) | % | 91.3 |

###

- target.of.assay: α-synuclein fibrils (Homo sapiens, UniProt P37840)
- Construct: purchased rPeptide
- method.notes: Congo red binding assay, α-synuclein fibrils (Example 12)
- Type: biochemical
- run.parameters: α-synuclein:test compound wt/wt ratio 1:0.001; 3-day incubation
experimental.endpoint: % Inhibition α-synuclein (result ± S.D.), Congo red binding (%)

| molecular.string | unit.spec | result.value |
| --- | --- | --- |
| O=C(Nc1ccc(O)c(O)c1)c1cc(O)c(O)c(F)c1 | % | 0.0 |
| O=C(Nc1cc(O)c(O)c(F)c1)c1ccc(O)c(O)c1 | % | 6.1 |
| O=C(Nc1cc(O)c(O)cc1F)c1ccc(O)c(O)c1 | % | 0.0 |
| O=C(Nc1ccc(O)c(O)c1)c1ccc(O)c(O)c1F | % | 0.0 |
| O=C(Nc1ccc(O)c(O)c1)c1cc(O)c(O)cc1F | % | 0.0 |
| O=C(Nc1ccc(O)c(O)c1F)c1ccc(O)c(O)c1 | % | 0.0 |
| O=C(O)CN(CCN(CC(=O)O)CC(=O)O)CC(=O)O | % | 3.3 |

###

- target.of.assay: α-synuclein fibrils (Homo sapiens)
- Construct: purchased rPeptide
- method.notes: Thioflavin T fluorometry, disruption of pre-formed α-synuclein fibrils (Example 12)
- Assay type: biochemical
- run.parameters: α-synuclein:test compound wt/wt ratio 1:0.01; 30 μg pre-fibrillized α-synuclein, 37° C., 3 days
experimental.endpoint: % Inhibition α-synuclein (result ± S.D.), Thioflavin T fluorometry (%)

| molecule | result.value |
| --- | --- |
| O=C(Nc1cc(O)c(O)cc1F)c1ccc(O)c(O)c1 [DC-0051-F5] | 59.0 |
| O=C(Nc1ccc(O)c(O)c1)c1cc(O)c(O)cc1F [DC-0051-F2] | 61.1 |
| O=C(Nc1ccc(O)c(O)c1)c1cc(O)c(O)c(F)c1 [DC-0051-F3] | 59.6 |
| O=C(Nc1cc(O)c(O)c(F)c1)c1ccc(O)c(O)c1 [DC-0051-F4] | 40.6 |
| O=C(Nc1ccc(O)c(O)c1F)c1ccc(O)c(O)c1 [DC-0051-F6] | 56.2 |
| O=C(Nc1ccc(O)c(O)c1)c1ccc(O)c(O)c1F [DC-0051-F1] | 58.4 |
| O=C(O)CN(CCN(CC(=O)O)CC(=O)O)CC(=O)O [EDTA] | 0.0 |
